# Tested on: human ovarian adenocarcinoma (SK-OV-3) cells
# experimentDescription: Cytotoxicity (MTS proliferation assay) of peptides in SK-OV-3 cells
# Format: cell-based
# testContext: SK-OV-3; up to / at 50 µM peptide
Peptide text beside a SMILES is read from it. * marks the point of attachment. Oleoyl = CCCCCCCC/C=C\CCCCCCCC(=O)*; Lauroyl = CCCCCCCCCCCC(=O)*
readoutKind: cytotoxicity (in words)

• CCCCCCCCCCCC(=O)N[C@@H](Cc1c[nH]cn1)C(=O)N[C@@H](CCCNC(=N)N)C(=O)N[C@@H](Cc1c[nH]cn1)C(=O)N[C@@H](CCCNC(=N)N)C(=O)N[C@@H](Cc1c[nH]cn1)C(=O)N[C@@H](CCCNC(=N)N)C(=O)N[C@@H](Cc1c[nH]cn1)C(=O)N[C@@H](CCCNC(=N)N)C(=O)O [C12-(HR)4] (Lauroyl-HRHRHRHR-OH) = not toxic
• CCCCCCCC/C=C\CCCCCCCC(=O)N[C@@H](Cc1c[nH]cn1)C(=O)N[C@@H](CCCNC(=N)N)C(=O)N[C@@H](Cc1c[nH]cn1)C(=O)N[C@@H](CCCNC(=N)N)C(=O)N[C@@H](Cc1c[nH]cn1)C(=O)N[C@@H](CCCNC(=N)N)C(=O)N[C@@H](Cc1c[nH]cn1)C(=O)N[C@@H](CCCNC(=N)N)C(=O)O [C18-(HR)4] (Oleoyl-HRHRHRHR-OH) = not toxic
